Assay: growth suppression of yeast trafficking mutant, preliminary HTS, modulators of trafficking downstream of Golgi apparatus project, 1536-format plate, OD 615 nm (AID 637)
Conditions: yeast transport mutant growth, absorbance 615 nm, 18 h; stronger effect = higher value
Recorded Metric: inhibition (%)
Return type: number; implicit unit %.

What inhibition value was documented for this compound, CC(NCCc1ccc(O)cc1)C(O)c1ccc(O)cc1 (configuration not stated) ?
0.67

What inhibition value was documented for this compound, Cn1c(-c2ccccc2)cnc1SCc1nc2ccccc2c(=O)[nH]1 ?
4.18

What inhibition value was documented for this compound, Cc1cc2ccccc2c(=O)n1CC(=O)Nc1ccc2c(c1)OCO2 ?
-7.05

What inhibition value was documented for this compound, COc1ccccc1-c1nc2n(n1)C(c1ccc(Cl)cc1)C(C(N)=O)=C(C)N2 (configuration not stated) ?
-3.61

What inhibition value was documented for this compound, CC(CN1CCCCC1)OC(=O)c1ccc(Cl)cc1Cl (configuration not stated) ?
-3.65

What inhibition value was documented for this compound, O=C1NC2c3ccccc3C(=O)N2c2c1cnn2-c1ccccc1 (configuration not stated) ?
0.91

What inhibition value was documented for this compound, CCOc1ccccc1C1CC(=O)Nc2cc3c(cc21)OCO3 (configuration not stated) ?
8.17

What inhibition value was documented for this compound, CN1CCc2nc(SCCOc3ccccc3)c(C#N)cc2C1 ?
0.67

What inhibition value was documented for this compound, CCCC(=O)n1nc(-c2ccc(OC)cc2)nc1N ?
5.74

What inhibition value was documented for this compound, COc1ccc(-c2noc(CN3C(=O)c4ccccc4C3=O)n2)cc1 ?
11.3

What inhibition value was documented for this compound, Cc1cc(N2CCN(C)CC2)nc(N2CCOCC2)n1 ?
-8.17

What inhibition value was documented for this compound, CC1(C)C2CCC1(CS(=O)(=O)NCc1ccc(C(=O)O)cc1)C(=O)C2 (configuration not stated) ?
3.33

###

Experiment: growth inhibitors of H69AR lung tumor, primary screen, human, duplicate replicates (AID 580);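 note: 100% = mean luminescence of untreated wells and 0% = no signal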
Details: H69AR lung tumor cells viability, ATP luminescence, 72 h; at 10 µM
Active and inactive are the calls of the source.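 Rule for the calls: active = viability at or under a set limit in both replicates, limit being median viability minus 3 SD (cut at about 48% in these data, passing the limit was not always enough); inconclusive = at or under the limit in just one replicate; inactive = at or above the limit in both replicates.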
Permitted responses: active, inactive

Please let me know the test result on file for CCC(=O)Nc1cc(Cl)ccc1N1CCN(C(=O)CC)CC1 .
inactive

Please let me know the test result on file for COCCNC(=O)C(c1ccc(C)o1)N(C(=O)c1snc(C(N)=O)c1N)c1ccc(C)cc1 (centres undefined) .
inactive

Please let me know the test result on file for NS(=O)(=O)c1cc2c(cc1C(F)(F)F)NCNS2(=O)=O .
inactive

Please let me know the test result on file for CN1CCc2c(sc3c2c(=O)n(-c2ccccc2)c2nnc(SCc4ccc(F)cc4)n32)C1 .
inactive

Please let me know the test result on file for Cc1ccc(S(=O)(=O)NC(C)C(=O)Nc2ccc(C(N)=O)cc2)cc1 (centres undefined) .
inactive

Please let me know the test result on file for C=CCc1ccccc1OCC(O)CN1CCN(Cc2ccc3c(c2)OCO3)CC1 (centres undefined) .
inactive

Please let me know the test result on file for CCOC(=O)Cc1csc(NC(=O)CSc2nnc(C(C)C)n2CC)n1 .
inactive

Please let me know the test result on file for O=S1(=O)C=CC(Nc2cccc(Cl)c2)C1 (centres undefined) .
inactive

Please let me know the test result on file for Cc1[nH]nc(-c2ccc(O)c(C)c2O)c1-c1cnn(-c2ccccc2)c1 .
inactive

Please let me know the test result on file for CSc1ccccc1NS(=O)(=O)c1ccccc1 .
inactive

Please let me know the test result on file for Cc1nc(N2CCN(c3ncccn3)CC2)c2oc3ccccc3c2n1 .
inactive

Please let me know the test result on file for CCOCCCN(Cc1cc2cc(C)cc(C)c2[nH]c1=O)C(=O)N(CC)CC .
inactive

Please let me know the test result on file for COCCN1CN(S(=O)(=O)c2ccccc2)c2nc3ccccc3nc21 .
inactive

Please let me know the test result on file for CC1(C)CC(=O)C(C=NCc2ccc3c(c2)OCO3)=C(O)C1 .
inactive

Please let me know the test result on file for O=C(NCCCN1CCN(c2cccc(Cl)c2)CC1)c1ccc(N2CCCC2=O)cc1 .
inactive

Please let me know the test result on file for CCc1ccc(CCC(=O)Nc2ccc(C)c(C)c2)o1 .
inactive

Please let me know the test result on file for COc1ccc(CC(=O)Nc2ccc(OC)c(NC(=O)c3ccco3)c2)cc1 .
inactive

Please let me know the test result on file for CC1(C)Cc2c(sc3c2c(=N)n(Cc2ccco2)c(=O)n3Cc2ccccc2)CO1 .
inactive

Please let me know the test result on file for COC(=O)CCC(=O)Nc1ccc(S(=O)(=O)N2CCCCCC2)cc1 .
inactive

Please let me know the test result on file for CN(C)c1ccc(NC(=O)Nc2cccc(Cl)c2)cc1 .
inactive

Please let me know the test result on file for CC(C)Oc1ccc(C2C(C(=O)c3ccco3)=C(O)C(=O)N2CCCN(C)C)cc1 (centres undefined) .
inactive

Please let me know the test result on file for COc1ccc2c(C)nc(Nc3nc(C)cc(C)n3)nc2c1 .
inactive

Please let me know the test result on file for CCn1c(Cc2ccccc2)nnc1SCC(=O)Nc1nc2ccccc2s1 .
inactive

Please let me know the test result on file for Cc1nc2ccccn2c(=O)c1CCN1CCC(C(=O)c2ccc(F)cc2)CC1 .
inactive

Please let me know the test result on file for c1ccc2c(c1)nc(-c1ccncc1)n1nnnc21 .
inactive

Please let me know the test result on file for CCOC(=O)c1ccc(NC(=O)CSc2nnc(COc3ccccc3)n2C)cc1 .
inactive

Please let me know the test result on file for CCOC(=O)C1CCCN(C(=O)Cc2ccc(OC)c(OC)c2)C1 (centres undefined) .
inactive

Please let me know the test result on file for COc1ccc(-n2cc(-c3ccccc3)c3c(N4CCN(CCO)CC4)ncnc32)cc1 .
inactive

Please let me know the test result on file for CC1(C)CC(=O)c2sc(NS(C)(=O)=O)nc2C1 .
inactive

Please let me know the test result on file for CN=C(Nc1ccc2c(c1)OCO2)SC1CC(=O)N(c2ccccc2)C1=O (centres undefined) .
inactive

Please let me know the test result on file for Cc1cc(NS(=O)(=O)c2ccc(NC(=O)Nc3ccc4c(c3)OCO4)cc2)no1 .
inactive

Please let me know the test result on file for Cc1ccc(NC(=O)CSc2nnc(-c3ccccn3)n2C)cc1 .
inactive

Please let me know the test result on file for COC(=O)c1cc(S(=O)(=O)N2CCOCC2)c(N2CCOCC2)cc1N1CCOCC1 .
inactive

Please let me know the test result on file for CCOC(=O)c1cc(C(C)(C)C)oc1CN .
inactive

Please let me know the test result on file for COc1ccc2cc(CN(CCO)C(=O)c3ccc(Br)cc3)c(=O)[nH]c2c1 .
inactive

Please let me know the test result on file for c1cc2c(cc1C1=Nn3c(nnc3C3CCCCC3)SC1)OCO2 .
active

Please let me know the test result on file for COC(=O)c1[nH]c2ccccc2c1NS(=O)(=O)c1ccc(OC)cc1OC .
inactive

Please let me know the test result on file for COc1cccc(N(C(=O)c2ccco2)C(C(=O)NC2CCCC2)c2ccc(N(C)C)cc2)c1 (centres undefined) .
inactive

Please let me know the test result on file for O=c1c2ccccc2c(/C=N/n2cnnc2)c(O)n1-c1ccccc1 .
inactive

Please let me know the test result on file for COC(=O)c1[nH]c2ccc(C)cc2c1NC(=O)CN1CCN(C(=O)c2ccccc2)CC1 .
inactive

Please let me know the test result on file for CC(=O)OC(C)C[N+](C)(C)C (centres undefined) .
inactive

Please let me know the test result on file for CCCCOc1ccc(C(=O)Nc2ccc(N3CCN(C(C)=O)CC3)cc2)cc1 .
inactive

Please let me know the test result on file for O=C(COn1nnc2ccc(C(F)(F)F)cc21)Nc1nnc(-c2ccccc2)o1 .
inactive

Please let me know the test result on file for O=C(Cn1c(C(=O)NCC2CCCO2)cc2sccc21)c1ccccc1 (centres undefined) .
inactive

###

For each of the compounds below, state its viability.
Test: HUVEC growth inhibition – cell-based, human, primary screen (AID 575);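 note: 100% = median of untreated cell wells with 0.1% DMSO on each plate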
Settings: HUVEC proliferation, CellTiter-Glo luminescence, 72 h; at 10 µM; stronger effect = lower value
Return type: number; implicit unit %.

What viability value was documented for this compound, CCOc1ccc(NC(=O)CSc2nc3cccnc3n2CC)cc1 ?
114

What viability value was documented for this compound, Cc1cc(C(C)(C)C)c(O)c(C)c1CC1=NCCN1 ?
93.4

What viability value was documented for this compound, CCCC(=O)Nc1ccccc1-c1nnn(CC(=O)Nc2ccc(OC)cc2)n1 ?
73.8

What viability value was documented for this compound, Cc1occc1C(=O)Nc1cccnc1 ?
100

What viability value was documented for this compound, COc1ccc(NC(=O)CCNC(=O)Cn2ccc3ccccc3c2=O)c(OC)c1 ?
108

What viability value was documented for this compound, c1ccc(-c2ccc(-c3ccccn3)nn2)nc1 ?
55.3

What viability value was documented for this compound, O=C(Cn1c(=O)oc2ccccc21)N1CCN(c2ccccc2)CC1 ?
104

What viability value was documented for this compound, CCN1CCN(Cc2nc3c(c(=O)[nH]c(=O)n3C)n2Cc2ccccc2Cl)CC1 ?
87.9

What viability value was documented for this compound, CC(=O)Nc1ccn(-c2ccccc2)n1 ?
97.9

What viability value was documented for this compound, COCCCn1nnnc1SCC(=O)Nc1nc(C)c(C)s1 ?
89.2

What viability value was documented for this compound, CCOC(=O)CSc1nnc(-c2ccc(NS(=O)(=O)c3ccc(C)cc3)cc2)o1 ?
56

What viability value was documented for this compound, O=C(c1cnn2c1NC(c1ccco1)CC2C(F)(F)F)N1CCN(c2cccc(Cl)c2)CC1 (configuration not stated) ?
48.7
